species on record: Mus musculus; assay: In vitro immunosuppressive activity in murine splenic T cells; type: functional, cell-based; settings: T-cell
quantity-name: pIC50
Give bare numbers, as −log10 of the molar value.

Query: pIC50; subject: CC[C@@H]1/C=C(\C)C[C@H](C)C[C@H](OC)[C@H]2O[C@@](O)(C(=O)C(=O)N3CCCC[C@H]3C(=O)O[C@H](/C(C)=C/[C@@H]3CC[C@@H](OC(=O)Cc4ccccc4)[C@H](OC)C3)[C@H](C)[C@@H](O)CC1=O)[C@H](C)C[C@@H]2OC
8.46

Fill in the blank: the reported pIC50 of CC[C@@H]1/C=C(\C)C[C@H](C)C[C@H](OC)[C@H]2O[C@@](O)(C(=O)C(=O)N3CCCC[C@H]3C(=O)O[C@H](/C(C)=C/[C@@H]3CC[C@@H](OCCc4ccccc4)[C@H](OC)C3)[C@H](C)[C@@H](O)CC1=O)[C@H](C)C[C@@H]2OC is ____.
9.21

Look at this molecule and give its reported pIC50. CC[C@@H]1/C=C(\C)C[C@H](C)C[C@H](OC)[C@H]2O[C@@](O)(C(=O)C(=O)N3CCCC[C@H]3C(=O)O[C@H](/C(C)=C/[C@@H]3CC[C@@H](OCCCc4ccccc4)[C@H](OC)C3)[C@H](C)[C@@H](O)CC1=O)[C@H](C)C[C@@H]2OC
8.46

Looking for the measured pIC50 of CC[C@@H]1/C=C(\C)C[C@H](C)C[C@H](OC)[C@H]2O[C@@](O)(C(=O)C(=O)N3CCCC[C@H]3C(=O)O[C@H](/C(C)=C/[C@@H]3CC[C@@H](OCc4ccccc4)[C@H](OC)C3)[C@H](C)[C@@H](O)CC1=O)[C@H](C)C[C@@H]2OC , can you help?
8.52

What value of pIC50 has been reported for the following molecule? CC[C@@H]1/C=C(\C)C[C@H](C)C[C@H](OC)[C@H]2O[C@@](O)(C(=O)C(=O)N3CCCC[C@H]3C(=O)O[C@H](/C(C)=C/[C@@H]3CC[C@@H](Oc4ccccc4)[C@H](OC)C3)[C@H](C)[C@@H](O)CC1=O)[C@H](C)C[C@@H]2OC
8.27

Return reported pIC50; argument: CC[C@@H]1/C=C(\C)C[C@H](C)C[C@H](OC)[C@H]2O[C@@](O)(C(=O)C(=O)N3CCCC[C@H]3C(=O)O[C@H](/C(C)=C/[C@@H]3CC[C@@H](OCCO)[C@H](OC)C3)[C@H](C)[C@@H](O)CC1=O)[C@H](C)C[C@@H]2OC
8.37

Return reported pIC50; argument: CC[C@@H]1/C=C(\C)C[C@H](C)C[C@H](OC)[C@H]2O[C@@](O)(C(=O)C(=O)N3CCCC[C@H]3C(=O)O[C@H](/C(C)=C/[C@@H]3CC[C@@H](OCC(O)c4ccccc4)[C@H](OC)C3)[C@H](C)[C@@H](O)CC1=O)[C@H](C)C[C@@H]2OC (stereo partly drawn)
9.74

Continue with the next molecule.
Bench note: what pIC50 did CC[C@@H]1/C=C(\C)C[C@H](C)C[C@H](OC)[C@H]2O[C@@](O)(C(=O)C(=O)N3CCCC[C@H]3C(=O)O[C@H](/C(C)=C/[C@@H]3CC[C@@H](O)[C@H](OC)C3)[C@H](C)[C@@H](O)CC1=O)[C@H](C)C[C@@H]2OC show?
9.16
